# Study System: UniProtKB P21554
# Method Description: Displacement of [3H]CP55940 from human CB1R in HEK293 cell membranes at 10 uM after 60 mins liquid scintillation analysis relative to control
Please respond with reported inhibition for every item in the list.
Numbers only, in %.

Use the examples below as a reference point.
Compound	Value Units	inhibition
CCCN(CCc1ccc(NC(=O)CCC(=O)NCCOCCOCC(=O)NCCOCCOCC(=O)NCCCC[C@H](NC(C)=O)C(=O)NCCCC[C@H](NC(C)=O)C(=O)NCCCCCCNC(=O)c2nn(-c3ccc(Cl)cc3Cl)c(-c3ccc(Cl)cc3)c2C)cc1)C1CCc2c(O)cccc2C1 (stereo not given in full)	%	33
Cc1c(C(=O)NN2CCCCC2)nn(CCCCCC(=O)NCCCCCC(=O)O)c1-c1ccc(Cl)cc1	%	13
CC(=O)N[C@@H](CCCCNC(=O)COCCOCCNC(=O)COCCOCCNC(=O)c1nn(-c2ccc(Cl)cc2Cl)c(-c2ccc(Cl)cc2)c1C)C(=O)NCCCC[C@H](NC(C)=O)C(=O)NCCCCCCNC(=O)c1nn(-c2ccc(Cl)cc2Cl)c(-c2ccc(Cl)cc2)c1C	%	29
CCCN(CCc1ccc(NC(=O)CCC(=O)NCCCCCC(=O)NCc2ccc(C(=O)NCCCCCC(=O)NCCCCCCNC(=O)c3nn(-c4ccc(Cl)cc4Cl)c(-c4ccc(Cl)cc4)c3C)cc2)cc1)C1CCc2c(O)cccc2C1 (stereo not given)	%	33

// next entry
inhibition reading for `Cc1c(C(=O)NN2CCCCC2)nn(-c2ccc(Cl)cc2Cl)c1-c1ccc(C#CCCOCCCCCC(=O)OC(C)(C)C)cc1` : 97

---

Please respond with reported inhibition for every item in the list.
# Study System: Cannabinoid receptor 1 (Homo sapiens, UniProt P21554)
# Sequence (P21554 whole entry): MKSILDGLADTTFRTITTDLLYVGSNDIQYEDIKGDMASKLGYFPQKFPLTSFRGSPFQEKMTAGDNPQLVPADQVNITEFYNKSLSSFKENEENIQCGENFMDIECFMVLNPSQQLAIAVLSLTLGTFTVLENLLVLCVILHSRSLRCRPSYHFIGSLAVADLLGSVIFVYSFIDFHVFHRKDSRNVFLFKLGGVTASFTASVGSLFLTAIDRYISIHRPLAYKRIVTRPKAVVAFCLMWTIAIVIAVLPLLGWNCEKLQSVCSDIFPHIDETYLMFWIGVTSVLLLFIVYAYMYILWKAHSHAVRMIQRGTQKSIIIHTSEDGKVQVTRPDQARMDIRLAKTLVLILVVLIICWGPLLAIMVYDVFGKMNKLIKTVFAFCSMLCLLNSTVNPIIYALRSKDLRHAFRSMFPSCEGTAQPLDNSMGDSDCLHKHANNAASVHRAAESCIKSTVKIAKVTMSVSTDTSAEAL
# Method Description: Displacement of [3H]CP55940 from human CB1R in HEK293 cell membranes at 10 uM after 60 mins liquid scintillation analysis relative to control
Numbers only, in %.

Each molecule below has a recorded value; state its inhibition.
1. Cc1c(C(=O)NCCCCCCNC(=O)CCCCCNC(=O)c2ccc(CNC(=O)CCCCCNC(=O)c3nn(-c4ccc(Cl)cc4Cl)c(-c4ccc(Cl)cc4)c3C)cc2)nn(-c2ccc(Cl)cc2Cl)c1-c1ccc(Cl)cc1
2. CC(=O)NCCCCCC(=O)NCc1ccc(C(=O)NCCCCCC(=O)NCCCCCC(=O)NCc2ccc(C(=O)NCCCCCC(=O)NCCCCCCNC(=O)c3nn(-c4ccc(Cl)cc4Cl)c(-c4ccc(Cl)cc4)c3C)cc2)cc1
3. CC(=O)OCCC#Cc1ccc(-c2c(C)c(C(=O)NN3CCCCC3)nn2-c2ccc(Cl)cc2Cl)cc1
4. CCCN(CCc1ccc(NC(=O)CCC(=O)NCCCCCC(=O)NCc2ccc(C(=O)NCCCCCC(=O)NCCCCCC(=O)NCc3ccc(C(=O)NCCCCCC(=O)NCCCCCCNC(=O)c4nn(-c5ccc(Cl)cc5Cl)c(-c5ccc(Cl)cc5)c4C)cc3)cc2)cc1)C1CCc2c(O)cccc2C1 (stereo not given)
5. COC(=O)CCCCCNC(=O)CCCCCn1nc(C(=O)NN2CCCCC2)c(C)c1-c1ccc(Cl)cc1
6. Cc1c(C(=O)NN2CCCCC2)nn(CCCCCC(=O)O)c1-c1ccc(Cl)cc1
7. Cc1c(C(=O)NN2CCCCC2)nn(CCCCCC(=O)OC(C)(C)C)c1-c1ccc(Cl)cc1

29
0
100
0
33
10
37

---

// each record: one item and its pKi for Cannabinoid receptor 1 (Homo sapiens)
One number for each entry, as −log10 of the molar value.

Molecular String	pKi
Cc1c(C(=O)NN2CCCCC2)nn(-c2ccc(Cl)cc2Cl)c1-c1ccc(C#CCCOC(=O)CCCCCNC(=O)OC(C)(C)C)cc1	6.97
COC(=O)CCCCCNC(=O)c1nn(-c2ccc(Cl)cc2Cl)c(-c2ccc(Cl)cc2)c1C	7.89

pKi reading for `Cc1c(C(=O)NN2CCCCC2)nn(-c2ccc(Cl)cc2Cl)c1-c1ccc(C#CCCOC(=O)CCCCCCCCCCNC(=S)Nc2ccc3c(c2)C(=O)OC32c3ccc(O)cc3Oc3cc(O)ccc32)cc1` : 5.68

---

// each record: one item and its pKi for D(2) dopamine receptor (Homo sapiens)
Numbers only, as −log10 of the molar value.

Each compound below has a recorded value; state its pKi.
1. CCCN(CCc1ccc(NC(=O)CCC(=O)NCCCC[C@H](NC(C)=O)C(=O)NCCCC[C@H](NC(C)=O)C(=O)NCCCCCCNC(=O)c2nn(-c3ccc(Cl)cc3Cl)c(-c3ccc(Cl)cc3)c2C)cc1)C1CCc2c(O)cccc2C1 (some centres undefined)
2. CCCN(CCc1ccc(NC(=O)CCC(=O)NCCCCCC(=O)NCc2ccc(C(=O)NCCCCCC(=O)NCCCCCCNC(=O)c3nn(-c4ccc(Cl)cc4Cl)c(-c4ccc(Cl)cc4)c3C)cc2)cc1)C1CCc2c(O)cccc2C1 (centres undefined)
3. CCCN(CCc1ccc(NC(=O)CCC(=O)NCCOCCOCC(=O)NCCCC[C@H](NC(C)=O)C(=O)NCCCC[C@H](NC(C)=O)C(=O)NCCCCCCNC(=O)c2nn(-c3ccc(Cl)cc3Cl)c(-c3ccc(Cl)cc3)c2C)cc1)C1CCc2c(O)cccc2C1 (some centres undefined)

9.08
8.66
8.62

pKi reading for CCCN(CCc1ccc(NC(=O)CCC(=O)NCCCCCC(=O)NCc2ccc(C(=O)NCCCCCC(=O)NCCCCCC(=O)NCc3ccc(C(=O)NCCCCCC(=O)NCCCCCCNC(=O)c4nn(-c5ccc(Cl)cc5Cl)c(-c5ccc(Cl)cc5)c4C)cc3)cc2)cc1)C1CCc2c(O)cccc2C1 (centres undefined) : 8.38

---

# Study System: Cannabinoid receptor 1 (Homo sapiens)
# Method Description: Displacement of [3H]CP55940 from human CB1R in HEK293 cell membranes at 10 uM after 60 mins liquid scintillation analysis relative to control
Property Measured: inhibition (%)
Answers are plain numbers, in %.

Use the examples below as a reference point.
Molecular String	Property Measured	Value Units	Numeric Result
CC(=O)NCCOCCOCC(=O)NCCOCCOCC(=O)NCCCC[C@H](NC(C)=O)C(=O)NCCCC[C@H](NC(C)=O)C(=O)NCCCCCCNC(=O)c1nn(-c2ccc(Cl)cc2Cl)c(-c2ccc(Cl)cc2)c1C	inhibition	%	23
COC(=O)CCCCCCCCCCNC(=O)c1nn(-c2ccc(Cl)cc2Cl)c(-c2ccc(Cl)cc2)c1C	inhibition	%	5

// next entry
inhibition reading for `Cc1c(C(=O)NCCCCCCNC(=O)CCCCCNC(=O)c2ccc(CNC(=O)CCCCCNC(=O)CCCCCNC(=O)c3ccc(CNC(=O)CCCCCNC(=O)c4nn(-c5ccc(Cl)cc5Cl)c(-c5ccc(Cl)cc5)c4C)cc3)cc2)nn(-c2ccc(Cl)cc2Cl)c1-c1ccc(Cl)cc1` : 0

---

# Study System: Cannabinoid receptor 1 (Homo sapiens)
# Method Description: Displacement of [3H]CP55940 from human CB1R in HEK293 cell membranes at 10 uM after 60 mins liquid scintillation analysis relative to control
Property Measured: inhibition (%)
Give bare numbers, in %.

Each molecule below has a recorded value; state its inhibition.
1. COC(=O)CCCCCNC(=O)c1ccc(-c2ccc(-c3c(C)c(C(=O)NN4CCCCC4)nn3-c3ccc(Cl)cc3Cl)cc2)cc1
2. CC(=O)N[C@@H](CCCCNC(=O)c1nn(-c2ccc(Cl)cc2Cl)c(-c2ccc(Cl)cc2)c1C)C(=O)NCCCC[C@H](NC(C)=O)C(=O)NCCCCCCNC(=O)c1nn(-c2ccc(Cl)cc2Cl)c(-c2ccc(Cl)cc2)c1C
3. Cc1c(C(=O)NN2CCCCC2)nn(-c2ccc(Cl)cc2Cl)c1-c1ccc(C#CCCOC(=O)CCCCCN)cc1
4. CNC(=O)CCCCCn1nc(C(=O)NN2CCCCC2)c(C)c1-c1ccc(Cl)cc1
5. Cc1c(C(=O)NN2CCCCC2)nn(-c2ccc(Cl)cc2Cl)c1-c1ccc(C#CCCO)cc1
6. COC(=O)CCCCCCCCCCNC(=O)c1ccc(-c2ccc(-c3c(C)c(C(=O)NN4CCCCC4)nn3-c3ccc(Cl)cc3Cl)cc2)cc1
7. Cc1c(C(=O)NN2CCCCC2)nn(-c2ccc(Cl)cc2Cl)c1-c1ccc(-c2ccc(C(=O)O)cc2)cc1
8. CCCN(CCc1ccc(NC(=O)CCC(=O)NCCCC[C@H](NC(C)=O)C(=O)NCCCC[C@H](NC(C)=O)C(=O)NCCCCCCNC(=O)c2nn(-c3ccc(Cl)cc3Cl)c(-c3ccc(Cl)cc3)c2C)cc1)C1CCc2c(O)cccc2C1 (stereo partly drawn)

1. 49
2. 11
3. 59
4. 3
5. 98
6. 0
7. 66
8. 62

Each molecule below has a recorded value; state its inhibition.
1. CC(=O)NCCCC[C@H](NC(C)=O)C(=O)NCCCC[C@H](NC(C)=O)C(=O)NCCCCCCNC(=O)c1nn(-c2ccc(Cl)cc2Cl)c(-c2ccc(Cl)cc2)c1C
2. CNC(=O)c1ccc(-c2ccc(-c3c(C)c(C(=O)NN4CCCCC4)nn3-c3ccc(Cl)cc3Cl)cc2)cc1
3. Cc1c(C(=O)NN2CCCCC2)nn(-c2ccc(Cl)cc2Cl)c1-c1ccc(C#CCCOC(=O)CCCCCNC(=O)OC(C)(C)C)cc1
4. Cc1c(C(=O)NCCCCCCCCCCC(=O)O)nn(-c2ccc(Cl)cc2Cl)c1-c1ccc(Cl)cc1

41
55
79
43

Each molecule below has a recorded value; state its inhibition.
1. CCCN(CCc1ccc(NC(=O)CCC(=O)NCCOCCOCC(=O)NCCCC[C@H](NC(C)=O)C(=O)NCCCC[C@H](NC(C)=O)C(=O)NCCCCCCNC(=O)c2nn(-c3ccc(Cl)cc3Cl)c(-c3ccc(Cl)cc3)c2C)cc1)C1CCc2c(O)cccc2C1 (stereo partly drawn)
2. Cc1c(C(=O)NN2CCCCC2)nn(-c2ccc(Cl)cc2Cl)c1-c1ccc(C#CCCOC(=O)CCCCCCCCCCN)cc1
3. COC(=O)CCCCCCCCCCNC(=O)CCCCCn1nc(C(=O)NN2CCCCC2)c(C)c1-c1ccc(Cl)cc1

1. 44
2. 87
3. 13
